- test: chemical genetic growth profiling, strain panel (AID 1159580);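 further: tested at 20 µM; growth read once vehicle control cultures reached saturation at 30 °C; 1 = growth at the plate median or of vehicle wells; lower values mean less growth of the strain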
- test conditions: S. cerevisiae deletion strains, growth OD, locus YDL074C, strain BRE1, hits give low values
Out of some 5,500 compounds screened, about 2,000 (36%) were called active. Roughly 18% stayed inconclusive and do not appear here. The list shows a part of the results.
This section presents compounds with their documented normalized growth values.
assay readout: normalized growth

INSERT INTO assay_data (compound, endpoint_value) VALUES
  ('CC(=O)c1cc(CC=C(C)C)c(O)c(CC=C(C)C)c1', 0.797),
  ('Cc1ccc2c(c1)C1(C)CCCC(C)(C(=O)O)C1CC2 (configuration not stated)', 0.951),
  ('CN[C@@H]1[C@H](O)[C@H](NC)[C@H]2O[C@@]3(O)C(=O)C[C@@H](C)O[C@H]3O[C@@H]2[C@H]1O', 1.02),
  ('CC(C)CC(NC(=O)OCC1c2ccccc2-c2ccccc21)C(=O)O (configuration not stated)', 1),
  ('CC(Cc1cccc(C(F)(F)F)c1)NCCOC(=O)c1ccccc1 (configuration not stated)', 0.914),
  ('CC(=O)OCC(=O)[C@@]1(O)[C@H](C)CC2C3CCC4=CC(=O)C=C[C@]4(C)[C@@]3(F)[C@@H](O)C[C@@]21C (some centres not stated)', 1.01),
  ('CC(C)=CCc1c2c(c3occ(-c4ccc(O)c(O)c4)c(=O)c3c1O)C=CC(C)(C)O2', 0.313);
